Numbers sourced from patent US11339130B1.

Biological target: Human Calpain 9/NS1 (Homo sapiens)
Sequence (O14815 1-690): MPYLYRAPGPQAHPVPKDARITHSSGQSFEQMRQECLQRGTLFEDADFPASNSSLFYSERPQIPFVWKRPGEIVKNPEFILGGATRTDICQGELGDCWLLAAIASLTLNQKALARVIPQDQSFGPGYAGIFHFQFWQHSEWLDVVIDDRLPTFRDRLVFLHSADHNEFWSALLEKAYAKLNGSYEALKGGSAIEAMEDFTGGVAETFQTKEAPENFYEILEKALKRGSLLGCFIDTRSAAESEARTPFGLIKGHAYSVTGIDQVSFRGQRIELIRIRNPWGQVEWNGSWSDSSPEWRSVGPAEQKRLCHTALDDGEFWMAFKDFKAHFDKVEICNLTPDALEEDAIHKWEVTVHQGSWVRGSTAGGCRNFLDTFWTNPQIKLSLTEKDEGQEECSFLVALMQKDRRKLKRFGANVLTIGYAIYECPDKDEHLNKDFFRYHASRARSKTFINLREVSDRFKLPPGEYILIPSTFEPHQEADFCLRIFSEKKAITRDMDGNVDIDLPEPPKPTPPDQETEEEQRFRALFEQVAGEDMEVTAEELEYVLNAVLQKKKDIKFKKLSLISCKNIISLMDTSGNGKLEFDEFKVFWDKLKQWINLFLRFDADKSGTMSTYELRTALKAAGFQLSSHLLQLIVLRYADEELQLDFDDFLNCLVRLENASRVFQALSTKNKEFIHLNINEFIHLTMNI
Sequence (P04632 1-268 partner): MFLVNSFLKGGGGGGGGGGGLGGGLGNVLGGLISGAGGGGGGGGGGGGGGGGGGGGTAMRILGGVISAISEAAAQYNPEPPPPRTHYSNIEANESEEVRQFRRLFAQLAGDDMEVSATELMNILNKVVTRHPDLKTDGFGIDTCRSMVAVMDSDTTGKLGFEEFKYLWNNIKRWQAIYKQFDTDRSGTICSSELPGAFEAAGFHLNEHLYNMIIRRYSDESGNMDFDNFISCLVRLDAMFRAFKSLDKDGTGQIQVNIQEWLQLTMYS
Test: Calpain inhibition continuous fluorescence (FRET) assay, Human Calpain 9/NS1
Type: biochemical
pIC50: −log10 of the molar value.
The entries below come with measured pIC50 values attached.

- molecule: "Cc1cc(C(=O)N[C@@H](Cc2ccccc2)C(=O)C(N)=O)n(-c2cccc(CNC(=O)Oc3ccccc3)c2)n1 [Compound 344]"
  pIC50: "> 5.52"
- molecule: "Cc1cc(C(=O)N[C@@H](Cc2ccccc2)C(=O)C(N)=O)n(-c2ccc(CNC(=O)Oc3ccccc3)cc2)n1 [Compound 162]"
  pIC50: "> 5.52"
